# Test system: Listeria monocytogenes
# METHOD_DESCRIPTION: Bactericidal activity against Listeria monocytogenes ATCC 19111 assessed as reduction in bacterial cell growth incubated for 18 to 20 hrs followed by re-plating on tryptic soy agar plates at 37 degC for 18 hrs by broth microdilution assay
# Assay type: functional
MEASUREMENT_KIND: MBC

Summary for this compound, C/C(=N\NC(=N)N)c1sc(-c2ccc(C#Cc3cccs3)cc2)nc1C : MBC is 32 µg/mL

Summary for this compound, C/C(=N\NC(=N)N)c1sc(-c2ccc(C#Cc3ccc(N)cc3)cc2)nc1C : MBC is > 64 µg/mL

Summary for this compound, C/C(=N\NC(=N)N)c1sc(-c2ccc(C#CC(C)(C)O)cc2)nc1C : MBC is 8 µg/mL

Summary for this compound, C/C(=N\NC(=N)N)c1sc(-c2ccc(C#Cc3ccc(C)s3)cc2)nc1C : MBC is 32 µg/mL
